Known inhibition at 10 µM of a selection of compounds
- Tested on: LX-2 cells
- MEASUREMENT_DESCRIPTION: Sirius red assay, hepatic stellate cell fibrosis (TGF-beta treated LX-2)
- Type: cell-based
- CONDITION_INFO: Homo sapiens, LX-2 cells, collagen production, 10 μM

Observe how each entry below is paired with its result.
CCc1oc2cc(C)ccc2c1C(=O)c1cc(I)c(O)c(I)c1 128%
CCc1oc2ccc(C)cc2c1C(=O)c1cc(I)c(O)c(I)c1 67.9%
CCc1oc2c(Cl)cccc2c1C(=O)c1cc(I)c(O)c(I)c1 90.6%
CCc1oc2ccc(C)cc2c1C(=O)c1cc(Br)c(O)c(Br)c1 65.1%

Query: Request: inhibition at 10 µM, test system LX-2 cells, entry CCc1oc2cc(Br)ccc2c1C(=O)c1cc(I)c(O)c(I)c1
Response: 78.3%

---

Known EC50 of a selection of molecules
- TEST_TARGET: HSP47 (Homo sapiens (Human), UniProt P50454)
- Sequence (P50454 19-418, species assumed): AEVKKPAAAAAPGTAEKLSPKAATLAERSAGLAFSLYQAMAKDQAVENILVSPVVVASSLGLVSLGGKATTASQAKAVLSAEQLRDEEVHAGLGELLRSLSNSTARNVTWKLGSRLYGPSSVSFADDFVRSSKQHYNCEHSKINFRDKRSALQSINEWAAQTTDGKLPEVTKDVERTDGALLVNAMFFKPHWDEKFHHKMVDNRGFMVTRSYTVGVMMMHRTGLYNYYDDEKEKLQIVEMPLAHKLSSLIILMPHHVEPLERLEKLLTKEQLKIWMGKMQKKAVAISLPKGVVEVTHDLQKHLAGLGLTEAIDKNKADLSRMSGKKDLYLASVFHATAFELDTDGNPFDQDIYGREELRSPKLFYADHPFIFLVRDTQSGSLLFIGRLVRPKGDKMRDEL
- MEASUREMENT_DESCRIPTION: Evaluation of HSP47 activity (inhibition of collagen fibril formation, 340 nm)
- CONDITION_INFO: HSP47 9.45 μg/ml, collagen fibril formation, test compound 100 μM to 1 μM
Could you give me the number in µM? Just the number is fine.

Observe how each entry below is paired with its result.
CCc1oc2c(C)cccc2c1C(=O)c1cc(Br)c(O)c(Br)c1 73
CCc1oc2ccc(C)cc2c1C(=O)c1cc(I)c(O)c(I)c1 37.1

For the next question, use this molecule.
Query: Endpoint output: EC50 of CCc1oc2c(Cl)cccc2c1C(=O)c1cc(Br)c(O)c(Br)c1 . Value?
Response: 37.8

---

- System: LX-2 cells
- MEASUREMENT_DESCRIPTION: Sirius red assay, hepatic stellate cell fibrosis (TGF-beta treated LX-2)
- Format: cell-based
- CONDITION_INFO: Homo sapiens, LX-2, collagen production, TGF-beta 10 ng/ml, 24 hours
Known pEC50 of a selection of molecules
Scale explanation: pEC50 corresponds to minus log10 of a concentration expressed in moles per litre.

Query: Endpoint output: pEC50 of CCc1oc2cccc(Cl)c2c1C(=O)c1cc(Br)c(O)c(Br)c1 . Value?
Response: 5.52

Query: Endpoint output: pEC50 of Cc1oc2ccc(Br)cc2c1C(=O)c1cc(Br)c(O)c(Br)c1 . Value?
Response: 5.33

Query: Endpoint output: pEC50 of CCc1oc2c(Br)cccc2c1C(=O)c1cc(Br)c(O)c(Br)c1 . Value?
Response: 4.77

Query: Endpoint output: pEC50 of CCc1oc2c(Cl)cccc2c1C(=O)c1cc(Br)c(O)c(Br)c1 . Value?
Response: 5.33

Query: Endpoint output: pEC50 of CCc1oc2cccc(F)c2c1C(=O)c1cc(Br)c(O)c(Br)c1 . Value?
Response: 5.44

Query: Endpoint output: pEC50 of CCc1oc2c(F)cccc2c1C(=O)c1cc(Br)c(O)c(Br)c1 . Value?
Response: 4.96

Query: Endpoint output: pEC50 of Cc1oc2cc(Br)ccc2c1C(=O)c1cc(Br)c(O)c(Br)c1 . Value?
Response: 5.43

Query: Endpoint output: pEC50 of CCc1ccc2oc(CC)c(C(=O)c3cc(Br)c(O)c(Br)c3)c2c1 . Value?
Response: 5.40

Query: Endpoint output: pEC50 of CCc1oc2cccc(C)c2c1C(=O)c1cc(Br)c(O)c(Br)c1 . Value?
Response: 5.47

Query: Endpoint output: pEC50 of CCc1oc2c(C)cccc2c1C(=O)c1cc(Br)c(O)c(Br)c1 . Value?
Response: 5.26

Query: Endpoint output: pEC50 of CCc1oc2c(CC)cccc2c1C(=O)c1cc(Br)c(O)c(Br)c1 . Value?
Response: 5.51

Query: Endpoint output: pEC50 of CCc1ccc2c(C(=O)c3cc(Br)c(O)c(Br)c3)c(CC)oc2c1 . Value?
Response: 5.86

Data credit: patent US20250282741A1
